# Tested on: MCF7
# experimentDescription: NCI tumour cell line growth inhibition, 48 h
Activity calls are given as the source filed them. No stated cut-off is given here; in the data, active = GI50 up to about 1.1 µM and inactive = higher.
Outcomes: YES for active, NO for inactive

>>> categorylabel("NC(=S)N/N=C1\\CCCC1C(O)(C(F)(F)Cl)C(F)(F)Cl (centres undefined)")
"NO"
>>> categorylabel("O=[N+]([O-])c1cccc2nc3ccccc3c(NCCNCCO)c12")
"YES"
>>> categorylabel("COC(=O)Nc1nc2cc(S(=O)(=O)N3CCOCC3)ccc2[nH]1")
"NO"
>>> categorylabel("CC(=O)OCC(OC(C)=O)C1C[C@H]2O[C@@H]3[C@H](C[C@H]2O1)O[C@@]1(C[C@@H]3C)C[C@H](C)[C@@H]2O[C@]3(C[C@@H]2O1)C[C@H]1O[C@H]2[C@H](C)[C@H]4OC(=O)CC5CC[C@H]6OC7[C@H]8O[C@]9(CC[C@H]%10CC(O)(CO)[C@H](CC[C@H]%11C[C@@H](C)C(O)(CO)C(C[C@@H]4O[C@H]2C[C@H]1O3)O%11)O%10)CC8O[C@@H]7[C@@H](O9)[C@H]6O5 (some centres undefined)")
"YES"
>>> categorylabel("CC(=O)OCC1OC(n2c(C)c(/N=N/c3ccccc3)c(C)c(C#N)c2=S)C(OC(C)=O)C(OC(C)=O)C1OC(C)=O (centres undefined)")
"NO"
>>> categorylabel("c1ccc(-c2nnn(CCN3CCCCC3)n2)cc1")
"NO"
>>> categorylabel("Cc1ccc2nc(N/N=C/c3cccc(C)n3)cc(C)c2c1")
"NO"
>>> categorylabel("Cn1c(-c2ccc[se]2)ccc1-c1ccc(CO)[se]1")
"YES"
>>> categorylabel("CC1C(C)(C)C23CC12C1(OCCO1)C3Br (centres undefined)")
"NO"

---

# Test system: CCRF-CEM
# experimentDescription: NCI tumour cell line growth inhibition, 48 h
Active and inactive are the calls of the source. No stated cut-off is given here; in the data, active = GI50 up to about 1.1 µM and inactive = higher.
Outcomes: true (active), false (inactive)

>>> categorylabel("C=C1c2ccccc2Oc2nc3nc(N)c(C#N)c(N)c3c(N)c21")
"false"
>>> categorylabel("CC(=O)OCC(OC(C)=O)C1C[C@H]2O[C@@H]3[C@H](C[C@H]2O1)O[C@@]1(C[C@@H]3C)C[C@H](C)[C@@H]2O[C@]3(C[C@@H]2O1)C[C@H]1O[C@H]2[C@H](C)[C@H]4OC(=O)CC5CC[C@H]6OC7[C@H]8O[C@]9(CC[C@H]%10CC(O)(CO)[C@H](CC[C@H]%11C[C@@H](C)C(O)(CO)C(C[C@@H]4O[C@H]2C[C@H]1O3)O%11)O%10)CC8O[C@@H]7[C@@H](O9)[C@H]6O5 (some centres not stated)")
"true"
>>> categorylabel("CCc1c(N=[N+]=[N-])c2ccccc2oc1=O")
"false"
>>> categorylabel("Nc1ccc2ncc(Nc3ccc(Cl)c(Cl)c3)nc2c1")
"false"
>>> categorylabel("CC12CCC(=O)N1[C@@H](c1ccccc1)[C@@H](c1ccccc1)O2 (some centres not stated)")
"false"
>>> categorylabel("CC12CC(c3ccccc3O1)C(C(=O)Nc1cccc(F)c1)C(=O)N2 (configuration not stated)")
"false"
>>> categorylabel("Cc1ccc(NC(=O)CC2SC(Nc3ccc(Cl)cc3)=NC2=O)cc1C (configuration not stated)")
"false"

---

# Test system: MOLT-4
# experimentDescription: NCI tumour cell line growth inhibition, 48 h
The source made the active and inactive calls. Rule as the data show it: active = GI50 up to about 1.1 µM and inactive = higher.
The entries below are paired with their reported GI50.
propertyMeasured: GI50

>>> observed("NC(=O)NNC/C(Cl)=C(\\Cl)C(=O)O")
"> 100 µM (inactive)"
>>> observed("O=[N+]([O-])c1ccc(-c2nc3cc([N+](=O)[O-])ccc3[nH]2)cc1")
"29.9 µM (inactive)"
>>> observed("Cn1c(=O)c2c3oc(=O)cc(O)c3c(=O)n3c4ccccc4n(c1=O)c23")
"33.3 µM (inactive)"
>>> observed("C=C1CCC[C@@H](C)C(O)[C@@H]2OC(=O)C(=C)[C@@H]2C[C@@H](OC(C)=O)[C@@]2(C)CC[C@@H]1O2 (stereo not given in full)")
"4.84 µM (inactive)"
>>> observed("Clc1ccc(C(c2ccc(Cl)cc2)c2ccccn2)cc1")
"21.4 µM (inactive)"

---

# Test system: KM-20L2
# experimentDescription: NCI tumour cell line growth inhibition, 48 h
Active and inactive are the calls of the source. No stated cut-off is given here; in the data, active = GI50 up to about 1.1 µM and inactive = higher.
propertyMeasured: GI50

>>> observed("Nc1ccc(C(=O)N/C(=C\\c2cccc([N+](=O)[O-])c2)c2nc3ccccc3[nH]2)cc1")
"> 87.1 µM (inactive)"
>>> observed("Clc1ccc(C(c2ccc(Cl)cc2)c2ccccn2)cc1")
"14.4 µM (inactive)"
>>> observed("O=C(Cn1cc(I)c(C(=O)NCC(O)CO)n1)NCC(O)CO (stereo unspecified)")
"> 100 µM (inactive)"
>>> observed("CCN(CC)c1ccc2cc3ccc(N(CC)CC)cc3[o+]c2c1")
"1.82 µM (inactive)"
>>> observed("COC(=O)C(=O)C1(CCC(C)=O)c2ccccc2-c2c(C)ccc(C)c21 (stereo unspecified)")
"58.3 µM (inactive)"
>>> observed("CC(NC(=O)C(C)NC(=O)C(N)CCP(C)(=O)O)C(=O)O (stereo unspecified)")
"> 100 µM (inactive)"
>>> observed("COC(=O)CCC(NC(=S)N/N=C/c1ccccn1)C(=O)OC (stereo unspecified)")
"> 100 µM (inactive)"
>>> observed("Cc1nc2ccncc2[nH]1")
"> 100 µM (inactive)"
>>> observed("CCCCCCCCCCCCNC(=S)OCCCC")
"> 100 µM (inactive)"
>>> observed("COc1cc2c(cc1OC)C(=O)Cc1ccc(OC)c(OC)c1CN(C)CC2")
"> 100 µM (inactive)"
>>> observed("COC(=O)C(Cc1nc2ccc(Cl)cc2nc1O)/C(=N/NC(N)=O)C(=O)Nc1ccc(Cl)cc1 (stereo unspecified)")
"> 100 µM (inactive)"

---

# Tested on: SNB-75
# experimentDescription: NCI tumour cell line growth inhibition, 48 h
Activity calls are given as the source filed them. Cut-off read from the data, not from the text of the source: active = GI50 up to about 1.1 µM and inactive = higher.
The entries below are paired with their reported GI50.
propertyMeasured: GI50

>>> observed("C/C(=N\\NC(=O)c1ccccc1O)c1c(O)cc(C)oc1=O")
"20.2 µM (inactive)"
>>> observed("O=C(O)CCC(C(=O)O)N1C(=O)C2C3CCC(C3)C2C1=O (stereo unspecified)")
"> 100 µM (inactive)"
>>> observed("CCCCCCCCCCCCCC(=O)CC(=O)c1c(O)cccc1O")
"39.5 µM (inactive)"
>>> observed("NC(CCCC(N)P(=O)(O)O)P(=O)(O)O (stereo unspecified)")
"> 100 µM (inactive)"
>>> observed("CCC(Nc1ncnc2nc[nH]c12)C(=O)O (stereo unspecified)")
"26.2 µM (inactive)"
>>> observed("O=C1CCCC(=O)N1CCc1c[nH]c2ccccc12")
"> 100 µM (inactive)"
>>> observed("Cc1ccc([N+](=O)[O-])cc1S(=O)(=O)Nc1ccc(C2=NN(S(=O)(=O)c3cc([N+](=O)[O-])ccc3C)C(c3cccs3)C2)cc1 (stereo unspecified)")
"> 100 µM (inactive)"
>>> observed("C[N+]1(C)C/C(=C\\C=C\\c2ccccc2)C(=O)/C(=C/C=C/c2ccccc2)C1")
"6.73 µM (inactive)"
>>> observed("Nc1ncnc2c1ncn2C(=O)NC12CC3CC(CC(C3)C1)C2")
"84.7 µM (inactive)"
>>> observed("O=P(Oc1ccccc1)(Oc1ccccc1)Oc1c[nH]c2ccccc12")
"10.8 µM (inactive)"
>>> observed("NC(=S)N/N=C1\\CCCC1C(O)(C(F)(F)Cl)C(F)(F)Cl (stereo unspecified)")
"> 10 µM (inactive)"
>>> observed("Nc1ccc2ncc(Nc3ccc(Cl)c(Cl)c3)nc2c1")
"16 µM (inactive)"
>>> observed("O=C1CC(=O)c2c(O)cc(O)c(c2O)-c2c(ccc(O)c2O)C2=CC(=O)c3c(O)cc(O)c(c3O2)-c2c1ccc(O)c2O.O=C1CC2(O)Oc3c1c(O)cc(O)c3-c1c(ccc(O)c1O)-c1cc(=O)c3c(O)cc(O)c(c3o1)-c1c2ccc(O)c1O")
"> 50 µM (inactive)"
>>> observed("O=C(O)C(C(=O)C(=O)C(C(=O)O)c1ccc(Cl)cc1)c1ccc(Cl)cc1 (stereo unspecified)")
"3.32 µM (inactive)"
>>> observed("Nc1ccc(-c2nnc(-c3c(Cl)c(Cl)c(Cl)c(Cl)c3-c3nc4cc(C(=O)c5ccccc5)ccc4[nH]3)o2)cc1")
"24 µM (inactive)"
>>> observed("O=C(CC(C(=O)c1cccs1)c1ccsc1)c1ccc(Cl)s1 (stereo unspecified)")
"> 100 µM (inactive)"
>>> observed("CC1/C=C/C=C/CC/C=C/C=C/C=C/C=C/C(OC2OC(C)C(O)C(N)C2O)CC2OC(CC(O)C(O)CCC(O)CC(O)CC(O)CC(=O)OC(C)C(C)C1O)CC(O)C2C(=O)O (stereo unspecified)")
"18.6 µM (inactive)"
>>> observed("CC1=C(c2cc(C(=O)Nc3nccs3)nc(NC#N)n2)Sc2ccccc2N1")
"87.3 µM (inactive)"
>>> observed("CC(C)(C)[Si](C)(C)OCC1OC(n2cnc3c(NC(=O)c4ccccc4)ncnc32)CC1O (stereo unspecified)")
"26.7 µM (inactive)"
>>> observed("CC1(C)C2CCC(=O)C1CC2 (stereo unspecified)")
"> 100 µM (inactive)"
>>> observed("CSCCCNC(=O)c1csc([C@@H](CSC)NC(=O)CCNC(=O)[C@@H](NC(=O)OCC(Br)(Br)Br)C(C)O)n1 (stereo partly specified)")
"> 100 µM (inactive)"
>>> observed("CC(C)COC(c1ccc2c(c1)OCO2)C(C)Br (stereo unspecified)")
"23.1 µM (inactive)"
>>> observed("C=CC(CCc1ccc(C(=O)OCC)cc1)c1c(N)nc(N)[nH]c1=O (stereo unspecified)")
"47.8 µM (inactive)"
>>> observed("COc1ccc(C(O)/C(=N/N)c2nc3ccc(Cl)cc3nc2O)cc1 (stereo unspecified)")
"> 100 µM (inactive)"
>>> observed("O=C(O)C1(C(O)c2ccccc2)SCCCS1 (stereo unspecified)")
"> 10 µM (inactive)"
>>> observed("C=CCN(c1cc(OC)c2c(c1[N+](=O)[O-])C(C)(SC)C(=O)N2)S(C)(=O)=O (stereo unspecified)")
"91.6 µM (inactive)"
>>> observed("CC(=O)C(C)C(=O)N1C(=O)N(C)C2(C)N(C)C(=O)NC12C (stereo unspecified)")
"> 100 µM (inactive)"
>>> observed("N=C(N)N/N=C/c1c(Cl)nc2sccn12")
"38.1 µM (inactive)"
>>> observed("O=C(/C=C/c1ccccc1)CSc1nc2ccc(I)cc2c(=O)n1Cc1ccccc1")
"29.8 µM (inactive)"
>>> observed("Nc1nc2c(=O)c3ccccc3sc2s1")
"40.5 µM (inactive)"
>>> observed("CCCC/C=C/C/C=C/CCCCCCCCC(=O)OCC1CCCN2CCCCC12 (stereo unspecified)")
"> 100 µM (inactive)"
>>> observed("COc1ccc(N2C(=O)CC(C3CC(C(C)(C)C)CCC3=O)C2=O)cc1 (stereo unspecified)")
"> 100 µM (inactive)"
>>> observed("CCOC(=O)c1ccc(C(=O)/C(C(C)=O)=C2\\CCCN2C)n1C")
"10.9 µM (inactive)"
>>> observed("CCCC(=O)C1=C(O)C(Cc2c(O)c(C)c(O)c(C(=O)CCC)c2O)=C(O)C(C)(C)C1=O")
"29.4 µM (inactive)"
>>> observed("CC[N+](CC)(CC)Cc1cc2ccccc2n1C(=O)OC")
"87.9 µM (inactive)"
>>> observed("COc1ccc(C2C(=O)c3ccc(OC)cc3OC2c2cccnc2)cc1 (stereo unspecified)")
"34.8 µM (inactive)"
>>> observed("COc1nc(=O)n(COC(CO)CN2C(=O)c3ccccc3C2=O)cc1Cc1cccc(OCc2ccccc2)c1 (stereo unspecified)")
"15.5 µM (inactive)"
>>> observed("Cc1ccc(C(=O)O)c(/C=C2\\Cc3cc(C)cc(C)c3C2=O)c1")
"63.5 µM (inactive)"
>>> observed("CC(=O)Oc1ccc2c(-c3ccccc3)c(Oc3ccc(Cl)cc3)c(=O)oc2c1")
"7.45 µM (inactive)"
>>> observed("NC1CC(=O)c2cc(Br)sc21 (stereo unspecified)")
"> 100 µM (inactive)"
>>> observed("COC12COC(=O)C1C(c1ccc3c(c1)OCO3)c1cc3c(cc1O2)OCO3 (stereo unspecified)")
"7.71 µM (inactive)"
